# credit: paper PMC6901909

system: MDR P. aeruginosa PA253; test: microbe, parasite or virus in culture; format: cell-based, Pseudomonas aeruginosa; settings: MDR PA253, 18 h
Peptide text beside a SMILES is read from it.
recorded metric: MIC against MDR isolates of PA, PA253 (µM)
Enter your answer as a number in µM; do not include the unit.

Worked cases, answers included:
{"molecule": "CC[C@H](C)[C@H](NC(=O)[C@H](Cc1c[nH]c2ccccc12)NC(=O)[C@H](CCCCN)NC(=O)[C@H](CCCCN)NC(=O)[C@H](CC(C)C)NC(=O)[C@H](Cc1c[nH]c2ccccc12)NC(=O)[C@H](CCCCN)NC(=O)[C@@H](N)Cc1c[nH]c2ccccc12)C(=O)N[C@@H](CCCCN)C(N)=O [LOP5] (H-WKWLKKWIK-NH2)", "target under test": "MDR P. aeruginosa PA253", "value units": "µM", "MIC against MDR isolates of PA, PA253": 8}
{"molecule": "CC[C@H](C)[C@H](N)C(=O)N[C@@H](CC(C)C)C(=O)N[C@@H](CCCCN)C(=O)N[C@@H](Cc1c[nH]c2ccccc12)C(=O)N[C@@H](CCCCN)C(=O)N[C@@H](CCCNC(=N)N)C(=O)N[C@@H](CCCCN)C(=O)N[C@@H](Cc1c[nH]c2ccccc12)C(=O)N[C@@H](Cc1c[nH]c2ccccc12)C(=O)N[C@@H](CCCCN)C(=O)N[C@@H](Cc1c[nH]c2ccccc12)C(=O)N[C@@H](Cc1ccccc1)C(=O)N[C@@H](CCCNC(=N)N)C(N)=O [Indopt 7] (H-ILKWKRKWWKWFR-NH2)", "target under test": "MDR P. aeruginosa PA253", "value units": "µM", "MIC against MDR isolates of PA, PA253": 8}
{"molecule": "CC[C@H](C)[C@H](NC(=O)[C@H](CCCNC(=N)N)NC(=O)[C@H](CC(C)C)NC(=O)[C@H](CCCNC(=N)N)NC(=O)[C@@H](N)C(C)C)C(=O)N[C@@H](CCCNC(=N)N)C(=O)N[C@H](C(=O)N[C@@H](C)C(=O)N[C@H](C(=O)N[C@H](C(=O)N[C@@H](CCCNC(=N)N)C(=O)N[C@@H](C)C(N)=O)[C@@H](C)CC)C(C)C)C(C)C [Bac034] (H-VRLRIRVAVIRA-NH2)", "target under test": "MDR P. aeruginosa PA253", "value units": "µM", "MIC against MDR isolates of PA, PA253": 64}
{"molecule": "CC[C@H](C)[C@H](NC(=O)[C@H](CCCCN)NC(=O)[C@H](CCCNC(=N)N)NC(=O)[C@H](Cc1c[nH]c2ccccc12)NC(=O)[C@H](Cc1c[nH]c2ccccc12)NC(=O)[C@@H](N)CCCNC(=N)N)C(=O)N[C@@H](Cc1c[nH]c2ccccc12)C(=O)N[C@@H](CCCCN)C(=O)N[C@@H](Cc1c[nH]c2ccccc12)C(N)=O [LOP1] (H-RWWRKIWKW-NH2)", "target under test": "MDR P. aeruginosa PA253", "value units": "µM", "MIC against MDR isolates of PA, PA253": 8}

# input for lookup
Task: Bench note: what MIC against MDR isolates of PA, PA253 did CC[C@H](C)[C@H](NC(=O)[C@@H](N)Cc1ccccc1)C(=O)N[C@@H](CCCCN)C(=O)N[C@@H](Cc1c[nH]c2ccccc12)C(=O)N[C@@H](CCCCN)C(=O)N[C@@H](Cc1ccccc1)C(=O)N[C@@H](CCCNC(=N)N)C(=O)N1CCC[C@H]1C(=O)N[C@@H](Cc1c[nH]c2ccccc12)C(=O)N[C@@H](CCCCN)C(=O)N[C@@H](CCCCN)C(=O)N[C@@H](CCCNC(=N)N)C(=O)N[C@H](C(N)=O)[C@@H](C)O [Indopt 5] (H-FIKWKFRPWKKRT-NH2) show?
Output: 16
